Numbers sourced from ChEMBL document CHEMBL1153785.

# Assay: Cytotoxicity against human HEK293 cells at 120 uM after 72 hrs by Alamar blue assay
# Assay type: cell-based
# Condition: read-out: GI
Property label: inhibition at 72 h, 120 µM
State the value, then name its unit.

Memo: `COc1ccc2c(c1O)-c1nccc(C)c1C2=O` , reported inhibition at 72 h, 120 µM: 96%
